Source of measurements: patent US10144715B2

Test Target: LXR β LBD protein (Homo sapiens (Human))
Assay Protocol: biochemical
Type: binding
pKi: −log10 of the molar value.
Rule: pKi under 6 gives label 0, otherwise label 1.

Take a look at these entries with their results.
{"columns": ["Compound", "Group Label"],
 "data": [
  ["CS(=O)(=O)c1cccc(N2CCN(C[C@H]3CC[C@@H](C(F)(F)F)OC3)[C@@H](c3ccc(F)cc3)C2)c1 (single isomer, unassigned) [49-9]", "label 1"],
  ["C[C@]1(c2ccccc2)CN(c2cccc(S(C)(=O)=O)c2)CCN1Cc1ccc(C(F)(F)F)cc1 (single isomer, unassigned) [46-21]", "label 1"],
  ["CO[C@@H](C)[C@@H]1CN(c2ccc(CO)c(S(C)(=O)=O)c2)CCN1c1ncc(CO)c(C(F)(F)F)n1 (single isomer, unassigned) [11-4]", "label 1"],
  ["CON(C)C(=O)c1cnc(N2CCN(c3ccc(F)c(S(C)(=O)=O)c3)C[C@H]2c2ccc(F)cc2)nc1C(F)(F)F [17-32]", "label 1"],
  ["COCCCN(C)C(=O)c1cnc(N2CCN(c3ccc(F)c(S(C)(=O)=O)c3)C[C@H]2C(C)C)nc1C [17-31]", "label 0"],
  ["CCN(CCOC)C(=O)c1cnc(N2CCN(c3ccc(F)c(S(C)(=O)=O)c3)C[C@H]2C(C)C)nc1C [17-30]", "label 0"]
]}

Now look at this one.
In: For this compound, is measured pKi 6 or higher? CC(C)Oc1cc(C(F)(F)F)nc(N2CCN(c3ccc(F)c(S(C)(=O)=O)c3)C[C@H]2C(C)C)n1 [Cpd No 23-1]
Out: label 1

###

Test Target: LXR β LBD protein (Homo sapiens (Human))
Assay Protocol: biochemical
Type: binding
Protocol Conditions: read-out: LXRβ Binding Ki
Measured Metric: pKi
# pKi: negative log10 of molar concentration; output just the value

Record excerpt, results attached:
{"columns": ["Compound", "pKi"],
 "data": [
  ["CC(C)[C@H]1CN(c2ccc(CO)c(S(C)(=O)=O)c2)CCN1C[C@H]1CC[C@@H](C(F)(F)F)OC1 [Cpd No 49-1]", 7.43],
  ["CS(=O)(=O)c1cccc(N2CCN(Cc3ccc(C(F)(F)F)c(F)c3)[C@@H](c3ccccc3)C2)c1 (single isomer, unassigned) [46-26]", 7.24],
  ["CC(C)[C@H]1CN(c2ccc(CO)c(S(C)(=O)=O)c2)CCN1CC1CCC(O)(C(F)(F)F)CC1 (stereo partly shown) [Cpd No 48-38]", 7.57],
  ["Cc1nc(N2CCN(c3ccc(F)c(S(C)(=O)=O)c3)C[C@H]2C(C)C)ncc1Br [7-20]", 8.10],
  ["CS(=O)(=O)c1cc(N2CCN(c3ncc(CO)c(C(F)(F)F)n3)[C@H](c3ccc(F)cc3)C2)ccc1F [11-7]", 7.07],
  ["CC(=O)c1cnc(N2CCN(c3ccc(F)c(S(C)(=O)=O)c3)C[C@H]2c2ccc(F)cc2)nc1C(F)(F)F [13-3]", 7.06]
]}

Next item in the queue.
In: Hi! What's the reported pKi for Cc1cc(C#N)nc(N2CCN(c3ccc(F)c(S(C)(=O)=O)c3)C[C@H]2C(C)C)n1 [7-8] on LXR β LBD protein (Homo sapiens (Human))?
Out: 5.99

###

Test Target: UniProt P55055
Assay Protocol: biochemical
Assay type: biochemical
Protocol Conditions: agonist mode; read-out: FRET LXRβ EC50
Measured Metric: EC50 (nM)
Please state the figure in nM; there is no need to write the unit.

Record excerpt, results attached:
{"columns": ["Compound", "Unit Descriptor", "EC50"],
 "data": [
  ["CS(=O)(=O)c1cccc(N2CCN(C[C@H]3CC[C@H](C(F)(F)F)CC3)[C@@H](c3ccccc3)C2)c1 (single isomer, unassigned) [48-33]", "nM", 375],
  ["CS(=O)(=O)c1cc(N2CCN(C[C@H]3CC[C@H](C(F)(F)F)CC3)[C@H](c3ccccc3)C2)ccc1C(N)=O (single isomer, unassigned) [17-36]", "nM", 1180],
  ["NS(=O)(=O)c1cccc(N2CCN(C[C@H]3CC[C@H](C(F)(F)F)CC3)[C@H](c3ccccc3)C2)c1 (single isomer, unassigned) [48-36]", "nM", 16400],
  ["CS(=O)(=O)c1cccc(N2CCN(Cc3ccc(C(F)(F)F)cn3)[C@H](c3ccccc3)C2)c1 [46-63]", "nM", 7100]
]}

In: Fill blank: measured EC50 of the compound CS(=O)(=O)c1cccc(N2CCN(C[C@H]3CC[C@@H](C(F)(F)F)CC3)[C@@H](c3ccccc3)C2)c1 (single isomer, unassigned) [48-31] is ____.
Out: 22

In: Fill blank: measured EC50 of the compound CC(C)[C@H]1CC[C@H](CN2CCN(c3cccc(S(C)(=O)=O)c3)C[C@@H]2c2ccccc2)CC1 (single isomer, unassigned) [48-15] is ____.
Out: 197

###

Test Target: Gal4 DNA binding domain fused to the LBD of LXRβ in HEK293 cells (Homo sapiens (Human))
Sequence (P55055 222-460 limits assumed): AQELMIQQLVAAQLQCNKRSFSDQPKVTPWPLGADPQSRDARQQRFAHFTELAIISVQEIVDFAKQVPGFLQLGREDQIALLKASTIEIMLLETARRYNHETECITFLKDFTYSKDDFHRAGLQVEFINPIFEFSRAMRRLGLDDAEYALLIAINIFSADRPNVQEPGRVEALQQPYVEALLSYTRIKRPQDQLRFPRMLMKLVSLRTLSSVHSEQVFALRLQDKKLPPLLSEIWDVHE
Assay Protocol: cell-based
pEC50: −log10 of the molar value.
This listing pairs compounds with measured pEC50.

Record excerpt, results attached:
{"columns": ["Compound", "Measured Metric", "Recorded Measurement"],
 "data": [
  ["CC(C)[C@@H]1CN(c2ccc(F)c(S(C)(=O)=O)c2)CCN1c1nccc(OCC(F)(F)F)n1 [44-3]", "pEC50", "< 4.70"],
  ["COCCN(C)C(=O)c1cnc(N2CCN(c3ccc(F)c(S(C)(=O)=O)c3)C[C@H]2C(C)C)nc1C [17-26]", "pEC50", "< 4.70"]
]}

Next item in the queue.
In: Fill blank: measured pEC50 of the compound C[C@](O)(c1ccc(CN2CCN(c3cccc(S(C)(=O)=O)c3)C[C@H]2c2ccccc2)cc1)C(F)(F)F [46-29] is ____.
Out: < 4.70

###

This listing pairs compounds with measured EC50.
Test Target: Gal4 DNA binding domain fused to the LBD of LXRα in HEK293 cells (Homo sapiens (Human), UniProt Q13133)
Sequence (Q13133 209-447): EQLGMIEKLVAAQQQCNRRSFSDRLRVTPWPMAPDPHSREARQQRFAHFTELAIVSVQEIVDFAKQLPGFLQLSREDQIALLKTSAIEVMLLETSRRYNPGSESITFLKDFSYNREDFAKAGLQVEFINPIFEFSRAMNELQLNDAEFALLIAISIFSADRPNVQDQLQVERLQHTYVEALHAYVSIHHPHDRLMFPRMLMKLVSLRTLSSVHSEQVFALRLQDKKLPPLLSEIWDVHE
Assay Protocol: LXR luciferase transcriptional reporter gene assay, agonist mode, LXRα
Assay type: cell-based
Protocol Conditions: agonist mode; read-out: Cell LXRα EC50
Please state the figure in µM; there is no need to write the unit.

{"columns": ["Compound", "Recorded Measurement"],
 "data": [
  ["CS(=O)(=O)c1cc(N2CCN(Cc3ccc(C(F)(F)F)nc3)C(c3ccccc3)C2)ccc1C(N)=O (stereo not drawn) [46-58]", 6.99],
  ["CC(C)[C@@H]1CN(c2cc(F)c(CO)c(S(C)(=O)=O)c2)CCN1c1ncc(CO)c(C(F)(F)F)n1 [Cpd No 11-6]", 0.216]
]}

In: Fill blank: measured EC50 of the compound CC(C)[C@@H]1CN(c2ccc(F)c(S(C)(=O)=O)c2)CCN1c1ccc(C(F)(F)F)nn1 [7-49] is ____.
Out: 1.34

In: Fill blank: measured EC50 of the compound CNS(=O)(=O)c1cc(N2CCN(c3ncc(C(=O)OC)c(C(F)(F)F)n3)[C@H](C(C)C)C2)ccc1F [9-6] is ____.
Out: 0.503

###

Test Target: Gal4 DNA binding domain fused to the LBD of LXRα in HEK293 cells (Homo sapiens (Human), UniProt Q13133)
Assay Protocol: LXR luciferase transcriptional reporter gene assay, agonist mode, LXRα
Format: cell-based
Measured Metric: Cell LXRα efficacy

{"columns": ["Molecule", "Cell LXRα efficacy"],
 "data": [
  ["CS(=O)(=O)c1cccc(N2CCN(C[C@H]3CC[C@@H](C(F)F)CC3)[C@H](c3ccccc3)C2)c1 (single isomer, unassigned)", "2437 (10) %"]
]}

In: Fill blank: measured Cell LXRα efficacy of the molecule CC(C)[C@H]1CN(c2ccc(CO)c(S(C)(=O)=O)c2)CCN1CC1CCN(CC(F)(F)F)CC1 is ____.
Out: 386 (77) %

In: Fill blank: measured Cell LXRα efficacy of the molecule CNS(=O)(=O)c1cc(N2CCN(c3ncc(C(C)O)c(C(F)(F)F)n3)[C@H](C(C)C)C2)ccc1F (stereo partly shown) is ____.
Out: 503 (56) %

In: Fill blank: measured Cell LXRα efficacy of the molecule COCc1ccc(N2CCN(C[C@H]3CC[C@H](C(F)(F)F)CC3)[C@@H](c3ccccc3)C2)cc1S(C)(=O)=O is ____.
Out: 9842 (9) %

###

Test Target: LXR α LBD protein (Homo sapiens (Human))
Assay Protocol: Human LXRα coactivator recruitment FRET assay, agonist mode
Type: biochemical
Protocol Conditions: agonist mode
pEC50: −log10 of the molar value.
This listing pairs compounds with measured pEC50.

In: Hi! What's the reported pEC50 for CC(C)c1ccc(CN2CCN(c3cccc(S(C)(=O)=O)c3)C[C@H]2c2ccccc2)cc1 [46-7] on LXR α LBD protein (Homo sapiens (Human))?
Out: < 4.30

In: Hi! What's the reported pEC50 for CC(C)[C@@H]1CN(c2ccc(F)c(S(C)(=O)=O)c2)CCN1c1nc2ccc(C#N)cc2s1 [7-53] on LXR α LBD protein (Homo sapiens (Human))?
Out: < 4.30

In: Hi! What's the reported pEC50 for Cc1ccc(CN2CCN(c3cccc(S(C)(=O)=O)c3)C[C@H]2c2ccccc2)cc1 (single isomer, unassigned) [46-5] on LXR α LBD protein (Homo sapiens (Human))?
Out: < 4.30
